Values compiled from PubChem BioAssay (Tox21).

# Experiment summary: cAMP Responsive Elements (CRE) small molecule agonists, cell-based qHTS assay: qHTS cell viability counter screen (AID 2060914);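 also: viability read after 3 h of compound exposure; % is scaled to controls: 0 for no effect and ±100 for the full control effect; nearly all actives have a fitted effect of over 50% in size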
# Condition summary: CRE-bla HEK293T viability, CellTiter-Glo luminescence, 5 h; series mostly up to 92.4 µM
Results filed as inconclusive are left out. Calls of active or inactive are those of the source. Calls follow the shape of the dose curve; as a rule, active = well fitted cell-killing curve with a large enough effect in the repeat runs; inconclusive = weak or mixed curves, or effect the other way; inactive = flat fitted curve, though single readings scatter.
Outcome measure: activity change, negative = cytotoxicity

[
  {
    "Compound": "CCN(Cc1ccncc1)C(=O)C(CO)c1ccccc1 (configuration not stated)",
    "Outcome measure": "activity change, negative = cytotoxicity",
    "Endpoint result": "inactive"
  },
  {
    "Compound": "O=C(CN1CCN(Cc2ccc3c(c2)OCO3)CC1)N1c2ccccc2Sc2ccccc21",
    "Outcome measure": "activity change, negative = cytotoxicity",
    "Endpoint result": "inactive"
  },
  {
    "Compound": "S=c1nccc[nH]1",
    "Outcome measure": "activity change, negative = cytotoxicity",
    "Endpoint result": "inactive"
  },
  {
    "Compound": "CCCCCCCCCCCCC",
    "Outcome measure": "activity change, negative = cytotoxicity",
    "Endpoint result": "inactive"
  },
  {
    "Compound": "CN(C)CCN1CCOCC1",
    "Outcome measure": "activity change, negative = cytotoxicity",
    "Endpoint result": "inactive"
  },
  {
    "Compound": "CC(=O)CC(C)C",
    "Outcome measure": "activity change, negative = cytotoxicity",
    "Endpoint result": "inactive"
  },
  {
    "Compound": "C=C1[C@H]2CC[C@@H]3[C@H]2C(C)(C)CCC[C@]13C",
    "Outcome measure": "activity change, negative = cytotoxicity",
    "Endpoint result": "inactive"
  },
  {
    "Compound": "CC(C)(O)CCCC1=CCC(C=O)CC1 (configuration not stated)",
    "Outcome measure": "activity change, negative = cytotoxicity",
    "Endpoint result": "inactive"
  },
  {
    "Compound": "NC(=O)c1ccc([N+](=O)[O-])cc1Cl",
    "Outcome measure": "activity change, negative = cytotoxicity",
    "Endpoint result": "inactive"
  },
  {
    "Compound": "CCCCCCCCCCOCC(O)CN (configuration not stated)",
    "Outcome measure": "activity change, negative = cytotoxicity",
    "Endpoint result": "inactive"
  },
  {
    "Compound": "C#CC(C)(CC)OC(=O)c1ccccc1C(=O)O (configuration not stated)",
    "Outcome measure": "activity change, negative = cytotoxicity",
    "Endpoint result": "inactive"
  },
  {
    "Compound": "O=C(COCCOCCOCC(=O)Nc1c(I)cc(I)c(C(=O)O)c1I)Nc1c(I)cc(I)c(C(=O)O)c1I",
    "Outcome measure": "activity change, negative = cytotoxicity",
    "Endpoint result": "inactive"
  },
  {
    "Compound": "CCCCCCCCCCCCCCC1CO1 (configuration not stated)",
    "Outcome measure": "activity change, negative = cytotoxicity",
    "Endpoint result": "inactive"
  },
  {
    "Compound": "COc1ccc(/C=N/NC(=O)c2ccncc2)cc1OC",
    "Outcome measure": "activity change, negative = cytotoxicity",
    "Endpoint result": "inactive"
  },
  {
    "Compound": "CCCCCCCCCCC(=O)O",
    "Outcome measure": "activity change, negative = cytotoxicity",
    "Endpoint result": "inactive"
  },
  {
    "Compound": "CC1=C(C=O)C(C)(C)CC=C1",
    "Outcome measure": "activity change, negative = cytotoxicity",
    "Endpoint result": "inactive"
  },
  {
    "Compound": "CCCCCCCCC(CCCCCC)C(=O)O (configuration not stated)",
    "Outcome measure": "activity change, negative = cytotoxicity",
    "Endpoint result": "inactive"
  },
  {
    "Compound": "O=C(CS)Nc1ccccc1",
    "Outcome measure": "activity change, negative = cytotoxicity",
    "Endpoint result": "inactive"
  },
  {
    "Compound": "c1ccc2c(c1)[nH]c1ccccc12",
    "Outcome measure": "activity change, negative = cytotoxicity",
    "Endpoint result": "inactive"
  },
  {
    "Compound": "CC1(C)S[C@@H]2[C@H](NC(=O)C(c3ccccc3)S(=O)(=O)O)C(=O)N2[C@H]1C(=O)O (some centres not stated)",
    "Outcome measure": "activity change, negative = cytotoxicity",
    "Endpoint result": "inactive"
  },
  {
    "Compound": "c1csc(SSc2cccs2)c1",
    "Outcome measure": "activity change, negative = cytotoxicity",
    "Endpoint result": "inactive"
  },
  {
    "Compound": "OC[C@H]1O[C@@H]2O[C@H]3[C@H](O)[C@@H](O)[C@@H](O[C@H]4[C@H](O)[C@@H](O)[C@@H](O[C@H]5[C@H](O)[C@@H](O)[C@@H](O[C@H]6[C@H](O)[C@@H](O)[C@@H](O[C@H]7[C@H](O)[C@@H](O)[C@@H](O[C@H]8[C@H](O)[C@@H](O)[C@@H](O[C@H]9[C@H](O)[C@@H](O)[C@@H](O[C@H]1[C@H](O)[C@H]2O)O[C@@H]9CO)O[C@@H]8CO)O[C@@H]7CO)O[C@@H]6CO)O[C@@H]5CO)O[C@@H]4CO)O[C@@H]3CO",
    "Outcome measure": "activity change, negative = cytotoxicity",
    "Endpoint result": "inactive"
  },
  {
    "Compound": "CC(C)(C)C1=CC(=O)C(C(C)(C)C)=CC1=O",
    "Outcome measure": "activity change, negative = cytotoxicity",
    "Endpoint result": "inactive"
  },
  {
    "Compound": "c1ccc2c(c1)CCC2",
    "Outcome measure": "activity change, negative = cytotoxicity",
    "Endpoint result": "inactive"
  },
  {
    "Compound": "Cc1cc2c(s1)Nc1ccccc1N=C2N1CCN(C)CC1",
    "Outcome measure": "activity change, negative = cytotoxicity",
    "Endpoint result": "inactive"
  },
  {
    "Compound": "CCCCCCCCCCO[C@@H]1O[C@H](CO)[C@@H](O)[C@H](O)[C@H]1O",
    "Outcome measure": "activity change, negative = cytotoxicity",
    "Endpoint result": "inactive"
  },
  {
    "Compound": "OCCOCCOCCOCCO",
    "Outcome measure": "activity change, negative = cytotoxicity",
    "Endpoint result": "inactive"
  },
  {
    "Compound": "Cc1cnc(C)c(C)n1",
    "Outcome measure": "activity change, negative = cytotoxicity",
    "Endpoint result": "inactive"
  },
  {
    "Compound": "COc1cc2c(cc1N)oc1ccccc12",
    "Outcome measure": "activity change, negative = cytotoxicity",
    "Endpoint result": "inactive"
  },
  {
    "Compound": "COc1cccc(OC)c1O",
    "Outcome measure": "activity change, negative = cytotoxicity",
    "Endpoint result": "inactive"
  },
  {
    "Compound": "CO[Si](OC)(c1ccccc1)c1ccccc1",
    "Outcome measure": "activity change, negative = cytotoxicity",
    "Endpoint result": "inactive"
  },
  {
    "Compound": "CCCN1C=CN(C)C1",
    "Outcome measure": "activity change, negative = cytotoxicity",
    "Endpoint result": "inactive"
  },
  {
    "Compound": "CN(C)CCCSc1ccccc1NC(=O)/C=C/c1ccccc1",
    "Outcome measure": "activity change, negative = cytotoxicity",
    "Endpoint result": "inactive"
  },
  {
    "Compound": "CC[C@H](C)C(=O)O[C@H]1C[C@@H](C)C=C2C=C[C@H](C)[C@H](CC[C@@H]3C[C@@H](O)CC(=O)O3)[C@H]21",
    "Outcome measure": "activity change, negative = cytotoxicity",
    "Endpoint result": "inactive"
  },
  {
    "Compound": "O=CCc1ccccc1",
    "Outcome measure": "activity change, negative = cytotoxicity",
    "Endpoint result": "inactive"
  },
  {
    "Compound": "C[N+]12CCC(CC1)C(OC(=O)C(O)(c1ccccc1)c1ccccc1)C2 (configuration not stated)",
    "Outcome measure": "activity change, negative = cytotoxicity",
    "Endpoint result": "inactive"
  },
  {
    "Compound": "CCN(CCC#N)c1ccccc1",
    "Outcome measure": "activity change, negative = cytotoxicity",
    "Endpoint result": "inactive"
  },
  {
    "Compound": "CC(C)(C#N)c1cc(Cn2cncn2)cc(C(C)(C)C#N)c1",
    "Outcome measure": "activity change, negative = cytotoxicity",
    "Endpoint result": "inactive"
  },
  {
    "Compound": "O=C(O)CO",
    "Outcome measure": "activity change, negative = cytotoxicity",
    "Endpoint result": "inactive"
  },
  {
    "Compound": "OCCCC1CCCCC1",
    "Outcome measure": "activity change, negative = cytotoxicity",
    "Endpoint result": "inactive"
  },
  {
    "Compound": "O=C(c1ccccc1)c1ccc(Cl)cc1",
    "Outcome measure": "activity change, negative = cytotoxicity",
    "Endpoint result": "inactive"
  },
  {
    "Compound": "C=CC1CC2C=CC1C2 (configuration not stated)",
    "Outcome measure": "activity change, negative = cytotoxicity",
    "Endpoint result": "inactive"
  },
  {
    "Compound": "Cc1c(F)cc2c(=O)c(C(=O)O)cn3c2c1CCC3C (configuration not stated)",
    "Outcome measure": "activity change, negative = cytotoxicity",
    "Endpoint result": "inactive"
  },
  {
    "Compound": "CC(C)=CC(C)(C)C",
    "Outcome measure": "activity change, negative = cytotoxicity",
    "Endpoint result": "inactive"
  },
  {
    "Compound": "CC[N+](CC)(CC)CCOC(=O)C(C1CCCC1)C1CCCC1",
    "Outcome measure": "activity change, negative = cytotoxicity",
    "Endpoint result": "inactive"
  },
  {
    "Compound": "CCCC[P+](CCCC)(CCCC)CCCC",
    "Outcome measure": "activity change, negative = cytotoxicity",
    "Endpoint result": "inactive"
  },
  {
    "Compound": "C=CC(=O)OCCOC1C2CCC1C1CC=CC12 (configuration not stated)",
    "Outcome measure": "activity change, negative = cytotoxicity",
    "Endpoint result": "-3.05% [at 18.9 µM] (inactive)"
  },
  {
    "Compound": "CCC(C=O)CC",
    "Outcome measure": "activity change, negative = cytotoxicity",
    "Endpoint result": "inactive"
  },
  {
    "Compound": "C=C(C)C(=O)OCC1CCCO1 (configuration not stated)",
    "Outcome measure": "activity change, negative = cytotoxicity",
    "Endpoint result": "inactive"
  },
  {
    "Compound": "O=C(Nc1ccc(Oc2ccc(Cl)cc2)c(Cl)c1)c1cc(I)cc(I)c1O",
    "Outcome measure": "activity change, negative = cytotoxicity",
    "Endpoint result": "inactive"
  },
  {
    "Compound": "NCCCOCCOCCOCCCN",
    "Outcome measure": "activity change, negative = cytotoxicity",
    "Endpoint result": "inactive"
  },
  {
    "Compound": "CCN(CCO)c1cccc(C)c1",
    "Outcome measure": "activity change, negative = cytotoxicity",
    "Endpoint result": "inactive"
  }
]
